target: human V2 receptor (Homo sapiens); construct: expressed in transfected cells; host or cells: CHO K1 (ATCC) expressing firefly luciferase under a CRE-responsive promoter; assay: Cellular in vitro assay for determining vasopressin receptor activity, V2 receptor cell line (CHO, CRE-luciferase); assay type: cell-based; conditions: CHO cell line transfected with human V2 receptor; [Arg8]-vasopressin at EC50 concentration, 3 hours; read-out: IC50 hV2
Sequence (P30518 whole entry): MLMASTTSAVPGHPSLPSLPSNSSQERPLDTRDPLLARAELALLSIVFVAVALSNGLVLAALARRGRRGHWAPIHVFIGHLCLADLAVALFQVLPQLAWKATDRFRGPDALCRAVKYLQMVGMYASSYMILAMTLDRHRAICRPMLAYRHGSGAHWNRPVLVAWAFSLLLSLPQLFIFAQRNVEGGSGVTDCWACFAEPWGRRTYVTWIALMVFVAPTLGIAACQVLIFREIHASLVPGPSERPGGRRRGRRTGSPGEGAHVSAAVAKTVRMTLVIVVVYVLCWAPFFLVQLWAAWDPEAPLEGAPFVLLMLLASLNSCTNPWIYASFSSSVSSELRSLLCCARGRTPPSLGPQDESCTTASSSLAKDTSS
pIC50: −log10 of the molar value.
Quick reference: pIC50 of the listed items.
MEASUREMENT LABEL: pIC50

O=C(Nc1nccs1)c1ccccc1-n1cnc(Cn2nc(-c3ccc(Cl)cc3)n(C[C@H](O)C(F)(F)F)c2=O)n1    8.94
O=C(Nc1cccnc1-n1cnc(Cn2nc(-c3ccc(Cl)cc3)n(C[C@H](O)C(F)(F)F)c2=O)n1)[C@@H]1C[C@@H]1C(F)(F)F (racemic)    6.16
O=C(Nc1cccnc1-n1cnc(Cn2nc(-c3ccc(Cl)cc3)n(C[C@H](O)C(F)(F)F)c2=O)n1)C1CC1F (single isomer, unassigned) [Example 55]    6.16

###

target: human V1a receptor (Homo sapiens, UniProt P37288); assay: Cellular in vitro assay for determining vasopressin receptor activity, V1a receptor cell line (CHO, aequorin luminescence); details: CHO cell line transfected with human V1a receptor; [Arg]-vasopressin at EC50 concentration; read-out: IC50 hV1a
Sequence (P37288 whole entry): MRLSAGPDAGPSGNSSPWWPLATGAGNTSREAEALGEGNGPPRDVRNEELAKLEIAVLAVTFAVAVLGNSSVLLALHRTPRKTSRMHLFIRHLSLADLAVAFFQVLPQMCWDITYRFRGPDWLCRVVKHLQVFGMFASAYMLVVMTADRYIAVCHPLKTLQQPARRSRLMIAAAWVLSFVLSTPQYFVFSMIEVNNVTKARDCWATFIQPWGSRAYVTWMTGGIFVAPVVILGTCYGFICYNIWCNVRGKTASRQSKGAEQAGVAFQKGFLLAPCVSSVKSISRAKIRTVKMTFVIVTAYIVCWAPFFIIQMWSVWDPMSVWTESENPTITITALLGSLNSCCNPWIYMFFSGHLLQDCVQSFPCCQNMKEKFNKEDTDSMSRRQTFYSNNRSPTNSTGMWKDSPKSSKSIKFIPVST
pIC50: −log10 of the molar value.
MEASUREMENT LABEL: pIC50

Cc1nc(C(=O)Nc2ncccc2-n2cnc(Cn3nc(-c4ccc(Cl)cc4)n(C[C@H](O)C(F)(F)F)c3=O)n2)no1    7.50
CC1CC(=O)NC1C(=O)Nc1ncccc1-n1cnc(Cn2nc(-c3ccc(Cl)cc3)n(C[C@H](O)C(F)(F)F)c2=O)n1 (stereo partly shown)    7.40
Nc1cccc(NC(=O)c2ccccc2-n2cnc(Cn3nc(-c4ccc(Cl)cc4)n(C[C@H](O)C(F)(F)F)c3=O)n2)n1    8.16
O=C(Nc1ncccc1-n1cnc(Cn2nc(-c3ccc(Cl)cc3)n(C[C@H](O)C(F)(F)F)c2=O)n1)C1CC1F (single isomer, unassigned) [Example 77]    7.92
O=C(NCC(F)(F)F)c1ccccc1-n1cnc(Cn2nc(-c3ccc(Cl)cc3)n(C[C@H](O)C(F)(F)F)c2=O)n1    8.30
Cc1cncc(NC(=O)c2ccccc2-n2cnc(Cn3nc(-c4ccc(Cl)cc4)n(C[C@H](O)C(F)(F)F)c3=O)n2)c1    8.44
O=C(NCC1CC1)c1ncccc1-n1cnc(Cn2nc(-c3ccc(Cl)cc3)n(C[C@@H](O)C(F)(F)F)c2=O)n1    6.68
NC(=O)[C@@H]1CC(F)(F)CN1C(=O)c1ccccc1-n1cnc(Cn2nc(-c3ccc(Cl)cc3)n(C[C@H](O)C(F)(F)F)c2=O)n1    7.31
O=C(NCC(O)C(F)(F)F)c1ncccc1-n1cnc(Cn2nc(-c3ccc(Cl)cc3)n(C[C@@H](O)C(F)(F)F)c2=O)n1 (mixture of isomers)    6.64
CC(C)(O)C(=O)Nc1ncccc1-n1cnc(Cn2nc(-c3ccc(Cl)cc3)n(C[C@H](O)C(F)(F)F)c2=O)n1    6.90
NC1(CNc2ccncc2-n2cnc(Cn3nc(-c4ccc(Cl)cc4)n(C[C@H](O)C(F)(F)F)c3=O)n2)CC1    5.91
O=C(CC1CCC1)Nc1ncccc1-n1cnc(Cn2nc(-c3ccc(Cl)cc3)n(C[C@H](O)C(F)(F)F)c2=O)n1    7.63
O=C(Nc1ncccc1-n1cnc(Cn2nc(-c3ccc(Cl)cc3)n(C[C@H](O)C(F)(F)F)c2=O)n1)[C@H]1C[C@@H]1F (racemic)    8.00
O=C(NCC(F)(F)F)c1cccc(Cl)c1-n1cnc(Cn2nc(-c3ccc(Cl)cc3)n(C[C@H](O)C(F)(F)F)c2=O)n1    7.52
O=C(NCc1ccco1)c1ccccc1-n1cnc(Cn2nc(-c3ccc(Cl)cc3)n(C[C@H](O)C(F)(F)F)c2=O)n1    8.38
CS(=O)(=O)CC(=O)Nc1cccnc1-n1cnc(Cn2nc(-c3ccc(Cl)cc3)n(C[C@H](O)C(F)(F)F)c2=O)n1    8.32
CC1CN(C(=O)c2ccccc2-n2cnc(Cn3nc(-c4ccc(Cl)cc4)n(C[C@H](O)C(F)(F)F)c3=O)n2)CCO1 (mixture of isomers)    8.22
NC(=O)[C@H]1CC(F)(F)CN1C(=O)c1ncccc1-n1cnc(Cn2nc(-c3ccc(Cl)cc3)n(C[C@H](O)C(F)(F)F)c2=O)n1    7.15
O=C(NCC(O)C(F)(F)F)c1ncccc1-n1cnc(Cn2nc(-c3ccc(Cl)cc3)n(C[C@H](O)C(F)(F)F)c2=O)n1 (mixture of isomers)    7.35
O=C(c1ncccc1-n1cnc(Cn2nc(-c3ccc(Cl)cc3)n(C[C@@H](O)C(F)(F)F)c2=O)n1)N1CCS(=O)(=O)CC1    5.85
O=C(Nc1n[nH]cc1Cl)c1ccccc1-n1cnc(Cn2nc(-c3ccc(Cl)cc3)n(C[C@H](O)C(F)(F)F)c2=O)n1    9.49
N[C@@H]1CCCC[C@@H]1NC(=O)c1ccccc1-n1cnc(Cn2nc(-c3ccc(Cl)cc3)n(C[C@H](O)C(F)(F)F)c2=O)n1    8.16
O=C(N[C@@H]1C[C@@H]1F)c1ccncc1-n1cnc(Cn2nc(-c3ccc(Cl)cc3)n(C[C@H](O)C(F)(F)F)c2=O)n1    7.80
CC1(C)COCCN1C(=O)c1ncccc1-n1cnc(Cn2nc(-c3ccc(Cl)cc3)n(C[C@H](O)C(F)(F)F)c2=O)n1    7.62
O=C(NC1CC(F)(F)C1)c1cccnc1-n1cnc(Cn2nc(-c3ccc(Cl)cc3)n(C[C@H](O)C(F)(F)F)c2=O)n1    7.98

###

Quick reference: ratio IC50 hV2/hV1a of the listed items.
molecular target: human V1a receptor (Homo sapiens, UniProt P37288); construct: expressed in transfected cells; host or cells: CHO K1 (ATCC), also stably transfected with a modified aequorin; experiment: Cellular in vitro assay for determining vasopressin receptor activity, V1a receptor cell line (CHO, aequorin luminescence); assay type: cell-based; details: selectivity ratio IC50 hV2 / IC50 hV1a
MEASUREMENT LABEL: ratio IC50 hV2/hV1a

Cc1ccc(C(=O)Nc2ncccc2-n2cnc(Cn3nc(-c4ccc(Cl)cc4)n(C[C@H](O)C(F)(F)F)c3=O)n2)cc1 [Example 123]    21.9
CNCC(=O)Nc1ncccc1-n1cnc(Cn2nc(-c3ccc(Cl)cc3)n(C[C@H](O)C(F)(F)F)c2=O)n1 [Example 96]    266.7
O=C(NC1CC1)c1cccnc1-n1nc(Cn2nc(-c3ccc(Cl)cc3)n(C[C@H](O)C(F)(F)F)c2=O)nc1C(=O)N1CCS(=O)(=O)CC1 [Example 530]    9.9
O=C(Nc1cccnc1-n1cnc(Cn2nc(-c3ccc(Cl)cc3)n(C[C@H](O)C(F)(F)F)c2=O)n1)C1CCS(=O)(=O)C1 (single isomer, unassigned) [Example 51]    153.0
O=C(NCC1CC1)c1cccc(Cl)c1-n1cnc(Cn2nc(-c3ccc(Cl)cc3)n(C[C@H](O)C(F)(F)F)c2=O)n1 [Example 370]    12.7
N#CC1(NC(=O)c2cccnc2-n2cnc(Cn3nc(-c4ccc(Cl)cc4)n(C[C@H](O)C(F)(F)F)c3=O)n2)CC1 [Example 506]    64.6
O=C(Nc1cc(O)[nH]n1)c1ccccc1-n1cnc(Cn2nc(-c3ccc(Cl)cc3)n(C[C@H](O)C(F)(F)F)c2=O)n1 [Example 212]    24.5
NC(=O)[C@H]1CCCN1c1ncccc1-n1cnc(Cn2nc(-c3ccc(Cl)cc3)n(C[C@H](O)C(F)(F)F)c2=O)n1 [Example 66]    8.4
O=C(NCC(F)(F)F)c1ccccc1-n1cnc(Cn2nc(-c3ccc(Cl)cc3)n(C[C@H](O)C(F)(F)F)c2=O)n1 [Example 174]    51.4
NC(=O)[C@H]1CC(F)(F)CN1C(=O)c1ccccc1-n1cnc(Cn2nc(-c3ccc(Cl)cc3)n(C[C@H](O)C(F)(F)F)c2=O)n1 [Example 198]    245.5
O=C(NCC1CC1)c1ncccc1-n1cnc(Cn2nc(-c3ccc(Cl)cc3)n(C[C@H](O)C(F)(F)F)c2=O)n1 [Example 432]    21.2
Cn1nccc1C(=O)Nc1ncccc1-n1cnc(Cn2nc(-c3ccc(Cl)cc3)n(C[C@H](O)C(F)(F)F)c2=O)n1 [Example 106]    510.6
O=C(NC1CCC1)c1ccccc1-n1cnc(Cn2nc(-c3ccc(Cl)cc3)n(C[C@H](O)C(F)(F)F)c2=O)n1 [Example 316]    145.7
O=C(c1ncccc1-n1cnc(Cn2nc(-c3ccc(Cl)cc3)n(C[C@H](O)C(F)(F)F)c2=O)n1)N1CCNC(C(F)(F)F)C1 (mixture of isomers) [Example 448]    16.4
CC(=O)Nc1ccncc1-n1cnc(Cn2nc(-c3ccc(Cl)cc3)n(C[C@H](O)C(F)(F)F)c2=O)n1 [Example 28]    35.9
O=C(Nc1ncccc1-n1cnc(Cn2nc(-c3ccc(Cl)cc3)n(C[C@H](O)C(F)(F)F)c2=O)n1)c1ccccc1O [Example 101]    17.7
O=C(N[C@H]1C[C@H]1F)c1ncccc1-n1cnc(Cn2nc(-c3ccc(Cl)cc3)n(C[C@H](O)C(F)(F)F)c2=O)n1 (racemic) [Example 435]    43.5
NC(=O)[C@H]1CCN(C(=O)c2ccccc2-n2cnc(Cn3nc(-c4ccc(Cl)cc4)n(C[C@H](O)C(F)(F)F)c3=O)n2)C1 [Example 200]    153.3
CC1(NC(=O)c2ccncc2-n2nc(Cn3nc(-c4ccc(Cl)cc4)n(C[C@H](O)C(F)(F)F)c3=O)nc2C(=O)N2CCNC(=O)C2)CC1 [Example 515]    1.1
O=C(NCc1ccccn1)c1ccccc1-n1cnc(Cn2nc(-c3ccc(Cl)cc3)n(C[C@H](O)C(F)(F)F)c2=O)n1 [Example 301]    69.7
CC1(NC(=O)c2cccnc2-n2nc(Cn3nc(-c4ccc(Cl)cc4)n(C[C@H](O)C(F)(F)F)c3=O)nc2C(=O)N2CCNC(=O)C2)CC1 [Example 525]    0.7
O=C(Nc1c(F)cc(F)cc1F)c1ccccc1-n1cnc(Cn2nc(-c3ccc(Cl)cc3)n(C[C@H](O)C(F)(F)F)c2=O)n1 [Example 317]    123.9
O=C(Nc1ccc(F)cn1)c1ccccc1-n1cnc(Cn2nc(-c3ccc(Cl)cc3)n(C[C@H](O)C(F)(F)F)c2=O)n1 [Example 211]    25.6
NC(CNC(=O)c1cccc(Cl)c1-n1cnc(Cn2nc(-c3ccc(Cl)cc3)n(C[C@@H](O)C(F)(F)F)c2=O)n1)C(F)(F)F (mixture of isomers) [Example 408]    21.3
O=C(c1ccccc1-n1cnc(Cn2nc(-c3ccc(Cl)cc3)n(C[C@H](O)C(F)(F)F)c2=O)n1)N1CCCOCC1 [Example 284]    485.0
